GI50 values for the compounds below.
tested on: EKVX; assay: NCI tumour cell line growth inhibition, 48 h
Calls of active or inactive are those of the source. Rule as the data show it: active = GI50 up to about 1.1 µM and inactive = higher.

Recorded results for 3 compounds are shown here.
# compound, GI50
rows = [
    ("COc1ccc(C2=Nn3c(nc4sc(-c5ccccc5)cc4c3=O)SC2)cc1", "> 100 µM (inactive)"),
    ("O=C(O)C1CC(C2CCCCN2)CN2CCCCC12 (stereo unspecified)", "> 100 µM (inactive)"),
    ("CCOC(=O)C(SCCO)C(C(=O)OCC)n1ccc(N)nc1=O (stereo unspecified)", "> 100 µM (inactive)"),
]

Entry C1=Cc2nccc3cc4c(c(c23)N1)OCO4 ; GI50 = 9.55 µM (inactive)

compound Cc1nc2c(=O)[nH]c3ccc(Cl)cc3c2o1 , GI50 observed: 69.7 µM (inactive)

Kindly note the recorded GI50 for CSc1c(C(N)=S)c(N)nn1-c1ccccc1 , which is > 100 µM (inactive)

In plain terms, CCCCCCC(=O)C/C(=N/NC(N)=S)C(=O)NC1C2CC3CC(C2)CC1C3 (stereo unspecified) has a documented GI50 of > 100 µM (inactive)

For reference, reported GI50 for CCCCCCCCCCCC(=O)N(CCCCCCCCCCC(=O)O)CC(O)C(O)C(OC1OC(CO)C(O)C(O)C1O)C(O)CO (stereo unspecified) stands at > 100 µM (inactive)

For record CC1=C(O)C(=O)C2C(=O)C1C(C)C2c1ccc(Cl)cc1 (stereo unspecified) the listed GI50 is > 100 µM (inactive)

Looking up c1ccc2c(-c3cnc(-c4c[nH]c5ccccc45)cn3)c[nH]c2c1 , I found its GI50 recorded as 73.6 µM (inactive)

Looking up COC(=O)[C@H](CCSC)NC(=O)N[C@H](C)c1ccccc1 , I see its GI50 listed as > 100 µM (inactive)

The recorded GI50 for CCOC(=O)C1=C(C)N(Cc2ccc(Cl)cc2Cl)C2(O)C=CC(=O)C3C(=O)N(c4ccccc4)C(=O)C132 (stereo unspecified) is 1.89 µM (inactive)

For this compound ( Cc1nc(-n2nc(-c3ccccc3)cc2-c2ccccc2)sc1C(/C=C/c1ccc([N+](=O)[O-])cc1)=N/NC(N)=S ), measured GI50 is > 100 µM (inactive)
